experiment: AUC in mouse plasma at 10 mg/kg, po administered as single dose; format: ADME, organism-based; set-up: dose 10 mg/kg, route oral; conditions: plasma
propertyMeasured: AUC (µM·h)
I only need the number, in µM·h, no unit after it.

O=C(Nc1nc(-c2ccc(-c3ccccc3)cc2)cs1)C1CC1 has a reported AUC of 12.7

====

assay: AUC in FVB mouse brain at 10 mg/kg, po administered as single dose; assay type: ADME, organism-based; design: dose 10 mg/kg, route oral
propertyMeasured: AUC (µM·h)
I only need the number, in µM·h, no unit after it.

// known answers, use as guide
INSERT INTO measurements (chemicalstructure, readoutunits, valuereported) VALUES
  ('C(=N/Nc1ccc(-c2cnco2)cc1)/c1ccncc1', 'µM·h', 1.06),
  ('Cc1ccnc(Nc2nc(-c3ccc(-c4ccccn4)s3)cs2)c1', 'µM·h', 4.54);

// below: AUC requested for another molecule
Cc1cccc(Nc2nc(-c3ccc(-c4ccccc4)cc3)cs2)n1 has a reported AUC of 29.1

====

test: Clearance in FVB mouse plasma at 1 mg/kg, iv administered as single dose; format: ADME, organism-based; parameters: dose 1 mg/kg, route intravenous
clearance values by entry
I only need the number, in mL/min/kg, no unit after it.

// known answers, use as guide
INSERT INTO assay_data (chemicalstructure, propertymeasured, valuereported) VALUES
  ('C(=N/Nc1ccc(-c2cnco2)cc1)/c1ccncc1', 'clearance', 76),
  ('Cc1cccc(Nc2nc(-c3ccc(-c4ccccc4)cc3)cs2)n1', 'clearance', 15.3);

// below: clearance requested for another compound
Cc1ccnc(Nc2nc(-c3ccc(-c4ccccn4)s3)cs2)c1 has a reported clearance of 151

====

concentration at 72 h values by entry
experiment: Drug concentration at steady state in mouse brain assessed as total compound level in brain homogenates at 40 mg/kg/day, po measured after 3 days; assay type: ADME, organism-based; set-up: route oral; conditions: brain homogenate, read-out: Css
For clarity, give the value followed by its unit.

// known answers, use as guide
INSERT INTO assay_data (chemicalstructure, propertymeasured, valuereported) VALUES
  ('COc1ccc(-c2csc(Nc3cc4ccccc4cn3)n2)cc1OC', 'concentration at 72 h', '30 nM'),
  ('Cc1ccc(Nc2nc(-c3cc(-c4ccccc4)no3)cs2)nc1', 'concentration at 72 h', '880 nM'),
  ('Cc1cccc(Nc2nc(-c3cc4ccccc4o3)cs2)n1', 'concentration at 72 h', '1310 nM'),
  ('c1ccc2cc(Nc3nc(-c4ccncc4)cs3)ncc2c1', 'concentration at 72 h', '20 nM');

// below: concentration at 72 h requested for another molecule
Cc1cccc(Nc2nc(-c3ccc(-c4ccccc4)cc3)cs2)n1 has a reported concentration at 72 h of 8700 nM

====

assay: Oral bioavailability in FVB mouse […] at 10 mg/kg administered as single dose; type: ADME, organism-based; conditions: plasma
propertyMeasured: bioavailability (%)
I only need the number, in %, no unit after it.

INSERT INTO results (chemicalstructure, propertymeasured, valuereported) VALUES
  ('C(=N/Nc1ccc(-c2cnco2)cc1)/c1ccncc1', 'bioavailability', 24.8);

Cc1ccnc(Nc2nc(-c3ccc(-c4ccccn4)s3)cs2)c1 has a reported bioavailability of 27.3

Cc1cccc(Nc2nc(-c3ccc(-c4ccccc4)cc3)cs2)n1 has a reported bioavailability of 40.3

====

test: Half life in FVB mouse plasma at 10 mg/kg, po administered as single dose; type: ADME, organism-based; set-up: dose 10 mg/kg, route oral
propertyMeasured: half-life (h)
I only need the number, in h, no unit after it.

// known answers, use as guide
INSERT INTO assay_data (chemicalstructure, readoutunits, valuereported) VALUES
  ('Cc1cccc(Nc2nc(-c3ccc(-c4ccccc4)cc3)cs2)n1', 'h', 4.65),
  ('C(=N/Nc1ccc(-c2cnco2)cc1)/c1ccncc1', 'h', 1.01);

// below: half-life requested for another molecule
Cc1ccnc(Nc2nc(-c3ccc(-c4ccccn4)s3)cs2)c1 has a reported half-life of 0.98

====

assay: Cmax in FVB mouse plasma at 1 mg/kg, iv administered as single dose; assay type: ADME, organism-based; design: dose 1 mg/kg, route intravenous
propertyMeasured: Cmax (nM)
I only need the number, in nM, no unit after it.

// known answers, use as guide
INSERT INTO assay_data (chemicalstructure, propertymeasured, valuereported) VALUES
  ('Cc1cccc(Nc2nc(-c3ccc(-c4ccccc4)cc3)cs2)n1', 'Cmax', 2490),
  ('Cc1ccnc(Nc2nc(-c3ccc(-c4ccccn4)s3)cs2)c1', 'Cmax', 520);

C(=N/Nc1ccc(-c2cnco2)cc1)/c1ccncc1 has a reported Cmax of 1760

====

assay: Volume of distribution at steady state in FVB mouse plasma at 1 mg/kg, iv administered as single dose; type: ADME, organism-based; set-up: dose 1 mg/kg, route intravenous; conditions: read-out: Vdss
propertyMeasured: Vd (L/kg)
I only need the number, in L/kg, no unit after it.

C(=N/Nc1ccc(-c2cnco2)cc1)/c1ccncc1 has a reported Vd of 1.53

Cc1ccnc(Nc2nc(-c3ccc(-c4ccccn4)s3)cs2)c1 has a reported Vd of 12.6

Cc1cccc(Nc2nc(-c3ccc(-c4ccccc4)cc3)cs2)n1 has a reported Vd of 2.46

====

test: AUC in FVB mouse plasma at 1 mg/kg, iv administered as single dose; format: ADME, organism-based; design: dose 1 mg/kg, route intravenous
propertyMeasured: AUC (µM·h)
I only need the number, in µM·h, no unit after it.

// known answers, use as guide
INSERT INTO measurements (chemicalstructure, propertymeasured, valuereported) VALUES
  ('Cc1cccc(Nc2nc(-c3ccc(-c4ccccc4)cc3)cs2)n1', 'AUC', 2.78),
  ('C(=N/Nc1ccc(-c2cnco2)cc1)/c1ccncc1', 'AUC', 0.83);

Cc1ccnc(Nc2nc(-c3ccc(-c4ccccn4)s3)cs2)c1 has a reported AUC of 0.3

====

experiment: AUC in mouse brain at 40 mg/kg, po administered as single dose; assay type: ADME, organism-based; set-up: dose 40 mg/kg, route oral
AUC values by entry
I only need the number, in µM·h, no unit after it.

INSERT INTO assay_data (chemicalstructure, propertymeasured, valuereported) VALUES
  ('Cc1ccc(Nc2nc(-c3cc(-c4ccccc4)no3)cs2)nc1', 'AUC', 23.2),
  ('Cc1cccc(Nc2nc(-c3ccc(-c4ccccc4)cc3)cs2)n1', 'AUC', 303),
  ('Cc1ccc(Nc2nc(-c3ccc(-c4ccccn4)s3)cs2)nc1', 'AUC', 4.6);

// below: AUC requested for another molecule
Cc1ccnc(Nc2nc(-c3ccc(-c4ccccn4)s3)cs2)c1 has a reported AUC of 60.2

====

concentration at 72 h values by entry
assay: Drug concentration at steady state in mouse brain assessed as total compound level in brain homogenates at 130 mg/kg/day, po measured after 3 days; assay type: ADME, organism-based; design: route oral; conditions: brain homogenate, read-out: Css

Cc1cccc(Nc2nc(-c3ccc(-c4ccccc4)cc3)cs2)n1 has a reported concentration at 72 h of 31.8 µM

Cc1ccc(Nc2nc(-c3cc(-c4ccccc4)no3)cs2)nc1 has a reported concentration at 72 h of 23.3 µM

Cc1cccc(Nc2nc(-c3cc4ccccc4o3)cs2)n1 has a reported concentration at 72 h of 3.74 µM

c1ccc2cc(Nc3nc(-c4ccncc4)cs3)ncc2c1 has a reported concentration at 72 h of 0.04 µM

COc1ccc(-c2csc(Nc3cc4ccccc4cn3)n2)cc1OC has a reported concentration at 72 h of 0.14 µM

====

assay: Drug concentration at steady state in mouse brain assessed as total compound level in brain homogenates at 210 mg/kg/day, po measured after 3 days; type: ADME, organism-based; set-up: route oral; conditions: brain homogenate, read-out: Css
concentration at 72 h values by entry
For clarity, give the value followed by its unit.

c1ccc2cc(Nc3nc(-c4ccncc4)cs3)ncc2c1 has a reported concentration at 72 h of 0.1 µM

COc1ccc(-c2csc(Nc3cc4ccccc4cn3)n2)cc1OC has a reported concentration at 72 h of 0.32 µM

====

experiment: AUC in mouse brain at 40 mg/kg, po administered as single dose; type: ADME, organism-based; design: dose 40 mg/kg, route oral
propertyMeasured: AUC (µM·h)
I only need the number, in µM·h, no unit after it.

INSERT INTO results (chemicalstructure, propertymeasured, valuereported) VALUES
  ('Cc1cccc(Nc2nc(-c3cc4ccccc4o3)cs2)n1', 'AUC', 65.4);

COc1ccc(-c2csc(Nc3cc4ccccc4cn3)n2)cc1OC has a reported AUC of 6.3

Cc1ccc(Nc2nc(-c3ccncc3)cs2)nc1 has a reported AUC of 9.7
